system: HPAC; experiment: 3H thymidine proliferation assay, HPAC; type: cell-based, human; conditions: Homo sapiens, HPAC, read-out: EC50, HPAC, 3H thymidine method, 72 h incubation
pEC50: −log10 of the molar value.
RECORDED METRIC: pEC50

These solved cases illustrate the format of a correct answer.
COMPOUND | pEC50
CC[C@H](C)[C@H](NC(=O)[C@H]1CCCCN1C)C(=O)N(C)[C@H](C[C@@H](OC)c1nc(C(=O)N[C@H](CCC(=O)OC)Cc2ccccc2)cs1)C(C)C | 7.96
CC[C@H](C)[C@H](NC(=O)[C@H]1CCCCN1C)C(=O)N(C)[C@H](C[C@@H](OC)c1nc(C(=O)N[C@@H](Cc2ccccc2)C(=O)N[C@@H](C)C(=O)OC)cs1)C(C)C | < 7.00

input: Quick check: pEC50 of CCCC(NC(=O)c1csc([C@@H](C[C@H](C(C)C)N(C)C(=O)[C@@H](NC(=O)[C@H]2CCCCN2C)[C@@H](C)CC)OC)n1)C(=O)OC (stereo partly drawn) ?
output: < 7.00
